- Tested on: SUM149
- PROTOCOL: Cytotoxicity in vitro in the presence and absence of elastase (MTT assay)
- Type: cell-based
- DETAILS: SUM149 cells, compound alone (no elastase), 72 h
Where a name gives a salt, the structure may show the parent alone.
MEASURED_PARAMETER: IC50

See these solved cases before continuing.
COMPOUND | SYSTEM | IC50
CCCNC(=O)Nc1cccc(S(=O)(=O)Nc2cccc([C@@H](CC(=O)OCC[N+](C)(C)C)NC(=O)Nc3ccc(NC(=O)NCCOCCOCCOCCC(=O)N[C@@H](CC(=O)OCC[N+](C)(C)C)C(=O)N4CCC[C@H]4C(=O)N[C@H](C(=O)O[C@]4(CC)C(=O)OCc5c4cc4n(c5=O)Cc5c-4nc4ccccc4c5CC)C(C)C)cc3)c2)c1 | SUM149 | 10 to 100 nM
CCCNC(=O)Nc1cccc(S(=O)(=O)Nc2cccc([C@@H](CC(=O)O)NC(=O)Nc3ccc(NC(=O)NCCN(C)CCN(C)CCN(C)CC(=O)N[C@@H](CC(N)=O)C(=O)N4CCC[C@H]4C(=O)N[C@H](C(=O)O[C@]4(CC)C(=O)OCc5c4cc4n(c5=O)Cc5c-4nc4ccccc4c5CC)C(C)C)cc3)c2)c1.Cl.Cl.Cl | SUM149 | 10 to 100 nM
CCCNC(=O)Nc1cccc(S(=O)(=O)Nc2cccc([C@@H](CC(=O)OCCCN)NC(=O)Nc3ccc(NC(=O)NCCOCCOCCOCCC(=O)N[C@@H](CC(=O)OCCCN)C(=O)N4CCC[C@H]4C(=O)N[C@H](C(=O)O[C@]4(CC)C(=O)OCc5c4cc4n(c5=O)Cc5c-4nc4ccccc4c5CC)C(C)C)cc3)c2)c1 | SUM149 | 1.1 to 10 nM
CCCNC(=O)Cc1cccc(S(=O)(=O)Nc2cccc([C@H](CC(=O)O)NC(=O)Nc3ccc(NC(=O)NCCOCCOCCOCCC(=O)N[C@@H](CCCCNC(=O)CCOCCOCCOCCNC(=O)Nc4ccc(NC(=O)N[C@@H](CC(=O)O)c5cccc(NS(=O)(=O)c6cccc(NC(=O)NCCC)c6)c5)cc4)C(=O)NCCN(C)CCN(C)CCN(C)CC(=O)N[C@@H](CC(N)=O)C(=O)N4CCC[C@H]4C(=O)N[C@H](C(=O)O[C@]4(CC)C(=O)OCc5c4cc4n(c5=O)Cc5c-4nc4ccccc4c5CC)C(C)C)cc3)c2)c1 | SUM149 | 1.1 to 10 nM
CCCNC(=O)Nc1cccc(S(=O)(=O)Nc2cccc([C@@H](CC(=O)O)NC(=O)Nc3ccc(NC(=O)NCCOCCOCCOCCC(=O)N[C@@H](CC(=O)OCC[N+](C)(C)C)C(=O)N4CCC[C@H]4C(=O)N[C@H](C(=O)O[C@]4(CC)C(=O)OCc5c4cc4n(c5=O)Cc5c-4nc4ccccc4c5CC)C(C)C)cc3)c2)c1 [Compound C1, trifluoroacetate] | SUM149 | 10 to 100 nM

Please examine the following record next.
-- ask Find the measured IC50: item `CCCNC(=O)Nc1cccc(S(=O)(=O)Nc2cccc([C@@H](CC(=O)O)NC(=O)Nc3ccc(NC(=O)NCCN(C)CCN(C)CCN(C)CC(=O)NCC(=O)N4CCC[C@H]4C(=O)N[C@H](C(=O)O[C@]4(CC)C(=O)OCc5c4cc4n(c5=O)Cc5c-4nc4ccccc4c5CC)C(C)C)cc3)c2)c1` , target or system SUM149.
-- reply 0.1 to 1 nM

====

- System: SUM149
- PROTOCOL: Cytotoxicity in vitro in the presence and absence of elastase (MTT assay)
- Assay type: cell-based
- DETAILS: SUM149 cells, with 10 nM elastase, 72 h
pIC50: −log10 of the molar value.
# pIC50 listing for each entry below

See these solved cases before continuing.
MOLECULE | RESULT
CCCNC(=O)Nc1cccc(S(=O)(=O)Nc2cccc([C@@H](CC(=O)O)NC(=O)Nc3ccc(NC(=O)NCCN(C)CCN(C)CCN(C)CC(=O)NCCN(C)CCN(C)CCN(C)CC(=O)N[C@@H](CC(N)=O)C(=O)N4CCC[C@H]4C(=O)N[C@H](C(=O)O[C@]4(CC)C(=O)OCc5c4cc4n(c5=O)Cc5c-4nc4ccccc4c5CC)C(C)C)cc3)c2)c1 [Compound D1] | 9.00 to 10.00
CCCNC(=O)Nc1cccc(S(=O)(=O)Nc2cccc([C@@H](CC(=O)O)NC(=O)Nc3ccc(NC(=O)NCCN(C)CCN(C)CCN(C)CC(=O)NCC(=O)N4CCC[C@H]4C(=O)N[C@H](C(=O)O[C@]4(CC)C(=O)OCc5c4cc4n(c5=O)Cc5c-4nc4ccccc4c5CC)C(C)C)cc3)c2)c1 | > 11.00

Please examine the following record next.
-- ask So what's the measured pIC50 for this one? CCCNC(=O)Nc1cccc(S(=O)(=O)Nc2cccc([C@@H](CC(=O)O)NC(=O)Nc3ccc(NC(=O)NCCOCCOCCOCCC(=O)N[C@@H](CC(=O)OCCCCN(C)C)C(=O)N4CCC[C@H]4C(=O)N[C@H](C(=O)O[C@]4(CC)C(=O)OCc5c4cc4n(c5=O)Cc5c-4nc4ccccc4c5CC)C(C)C)cc3)c2)c1 [Compound C3]
-- reply 10.00 to 11.00

====

- PROTOCOL: Pharmacokinetics in rat after intravenous administration
- Assay type: in vivo
- DETAILS: male rats, intravenous 0.5 mg/kg bolus, plasma, non-compartmental analysis, read-out: Vss
# Vd listing for each entry below

See these solved cases before continuing.
MOLECULE | Vd
CCCNC(=O)Nc1cccc(S(=O)(=O)Nc2cccc([C@@H](CC(=O)O)NC(=O)Nc3ccc(NC(=O)NCCN(C)CCN(C)CCN(C)CC(=O)N[C@@H](CC(N)=O)C(=O)N4CCC[C@H]4C(=O)N[C@H](C(=O)O[C@]4(CC)C(=O)OCc5c4cc4n(c5=O)Cc5c-4nc4ccccc4c5CC)C(C)C)cc3)c2)c1.Cl.Cl.Cl [Compound B4b] | > 0.1 L/kg
CCCNC(=O)Nc1cccc(S(=O)(=O)Nc2cccc([C@@H](CC(=O)O)NC(=O)Nc3ccc(NC(=O)NCCOCCOCCOCCC(=O)NCCCC[C@H](NC(=O)CCOCCOCCOCCNC(=O)Nc4ccc(NC(=O)N[C@H](CC(=O)O)c5cccc(NS(=O)(=O)c6cccc(NC(=O)NCCC)c6)c5)cc4)C(=O)NCCOCCOCCOCCC(=O)N[C@@H](CC(=O)O)C(=O)N4CCC[C@H]4C(=O)N[C@H](C(=O)O[C@]4(CC)C(=O)OCc5c4cc4n(c5=O)Cc5c-4nc4ccccc4c5CC)C(C)C)cc3)c2)c1 [Compound A3] | 0.01 to 0.1 L/kg
CCCNC(=O)Nc1cccc(S(=O)(=O)Nc2cccc([C@@H](CC(=O)O)NC(=O)Nc3ccc(NC(=O)NCCOCCOCCOCCC(=O)N[C@@H](CCCCNC(=O)CCCC(=O)NCCOCCOCCOCCC(=O)N[C@@H](CC(=O)O)C(=O)N4CCC[C@H]4C(=O)N[C@H](C(=O)O[C@]4(CC)C(=O)OCc5c4cc4n(c5=O)Cc5c-4nc4ccccc4c5CC)C(C)C)C(=O)NCCCCCCCC(=O)O)cc3)c2)c1 [Compound E2] | 0.01 to 0.1 L/kg

Please examine the following record next.
-- ask So what's the measured Vd for this one? CCCNC(=O)Nc1cccc(S(=O)(=O)Nc2cccc([C@@H](CC(=O)O)NC(=O)Nc3ccc(NC(=O)NCCOCCOCCOCCC(=O)N[C@@H](CCCCNC(=O)CCCC(=O)NCCOCCOCCOCCC(=O)N[C@@H](CC(=O)O)C(=O)N4CCC[C@H]4C(=O)N[C@H](C(=O)O[C@]4(CC)C(=O)OCc5c4cc4n(c5=O)Cc5c-4nc4ccccc4c5CC)C(C)C)C(=O)NCCC(=O)O)cc3)c2)c1 [Compound E1]
-- reply > 0.1 L/kg

====

- Tested on: SUM149
- PROTOCOL: Cytotoxicity in vitro in the presence and absence of elastase (MTT assay)
- Assay type: cell-based
- DETAILS: SUM149 cells, with 10 nM elastase, 72 h
# IC50 listing for each entry below

See these solved cases before continuing.
COMPOUND | MEASURED_PARAMETER | RESULT
CCCNC(=O)Nc1cccc(S(=O)(=O)Nc2cccc([C@@H](CC(=O)O)NC(=O)Nc3ccc(NC(=O)NCCCCN(C)CCN(C)CCN(C)CC(=O)N[C@@H](CCCCNC(=O)CN(C)CCN(C)CCN(C)CCNC(=O)Nc4ccc(NC(=O)N[C@H](CC(=O)O)c5cccc(NS(=O)(=O)c6cccc(NC(=O)NCCC)c6)c5)cc4)C(=O)NCCN(C)CCN(C)CCN(C)CC(=O)N[C@@H](CC(N)=O)C(=O)N4CCC[C@H]4C(=O)N[C@H](C(=O)O[C@]4(CC)C(=O)OCc5c4cc4n(c5=O)Cc5c-4nc4ccccc4c5CC)C(C)C)cc3)c2)c1 [Compound A7] | IC50 | 0.1 to 1 nM
CCCNC(=O)Nc1cccc(S(=O)(=O)Nc2cccc([C@@H](CC(=O)OCCCN)NC(=O)Nc3ccc(NC(=O)NCCOCCOCCOCCC(=O)N[C@@H](CC(=O)OCCCN)C(=O)N4CCC[C@H]4C(=O)N[C@H](C(=O)O[C@]4(CC)C(=O)OCc5c4cc4n(c5=O)Cc5c-4nc4ccccc4c5CC)C(C)C)cc3)c2)c1 [Compound C8] | IC50 | 0.1 to 1 nM

Please examine the following record next.
-- ask Find the measured IC50: item CCCNC(=O)Nc1cccc(S(=O)(=O)Nc2cccc([C@@H](CC(=O)O)NC(=O)Nc3ccc(NC(=O)NCCOCCOCCOCCC(=O)N[C@@H](CC(=O)OCCCN(C)C)C(=O)N4CCC[C@H]4C(=O)N[C@H](C(=O)O[C@]4(CC)C(=O)OCc5c4cc4n(c5=O)Cc5c-4nc4ccccc4c5CC)C(C)C)cc3)c2)c1 [Compound C2] , target or system SUM149.
-- reply 0.01 to 0.1 nM

Origin of values: patent US20240423973A1
